system: SAS cells; experiment: SAS CTG proliferation assay (120 h) (HNSCC, wt amplified); type: cell-based
Would you mind telling me the reported IC50 of each entry?
Numeric answer only, unit nM assumed.

Exam item: Note down IC50 recorded for C[C@H](Oc1cc(-n2cncn2)nc(-c2noc3c2CCC[C@@]32CCCc3sc(N)c(C#N)c32)n1)[C@@H]1CCCN1C [II-70]
Marked response: 41

Exam item: Answer with reported IC50 of C[C@H](Oc1cc(-n2nccn2)nc(-c2onc3c2CCC[C@@]32CCCc3sc(N)c(C#N)c32)n1)[C@@H]1CCCN1C [I-29]
Marked response: 97

Exam item: Give the reported value of IC50 for this record: C[C@H](Oc1cc(N2CCNC3(CCCC3)C2)nc(-c2noc3c2CCC[C@@]32CCCc3sc(N)c(C#N)c32)n1)[C@@H]1CCCN1C [II-41]
Marked response: 2110

Exam item: // fetch IC50 given entry C[C@H](Oc1cc(-c2ccc(N)nc2)nc(-c2onc3c2CCC[C@@]32CCCc3sc(N)c(C#N)c32)n1)[C@@H]1CCCN1C [I-25]
Marked response: 285

Exam item: State its IC50: COc1c(O[C@@H](C)[C@@H]2CCCN2C)nc(-c2noc3c2CCC[C@@]32CCCc3sc(N)c(C#N)c32)nc1-n1ccc(C(N)=O)n1 [II-159]
Marked response: 70

Exam item: # return recorded IC50 for entry C[C@H](Oc1cc(-n2cc3c(n2)CNC3)nc(-c2noc3c2CCC[C@@]32CCCc3sc(N)c(C#N)c32)n1)[C@@H]1CCCN1C [II-168]
Marked response: 441

Exam item: Kindly indicate its recorded IC50. Item: C[C@H](Oc1cc(-c2cn(C)nn2)nc(-c2onc3c2CCC[C@@]32CCCc3sc(N)c(C#N)c32)n1)[C@@H]1CCCN1C [I-16]
Marked response: 77

Exam item: Look up and report measured IC50 for this entry: C[C@H](Oc1cc(-n2ccc(C(=O)O)n2)nc(-c2noc3c2CCC[C@@]32CCCc3sc(N)c(C#N)c32)n1)[C@@H]1CCCN1C [II-24]
Marked response: 15600

Exam item: Provide one value: measured IC50 of C[C@H](Oc1cc(-n2ccc(C(=O)N(C)C3COC3)n2)nc(-c2onc3c2CCC[C@@]32CCCc3sc(N)c(C#N)c32)n1)[C@@H]1CCCN1C [I-60]
Marked response: 40

Exam item: Identify IC50 associated with the compound C[C@H](Oc1cc(N2C[C@H](C)NC3(CC3)C2)nc(-c2noc3c2CCC[C@@]32CCCc3sc(N)c(C#N)c32)n1)[C@@H]1C[C@@H](F)CN1C [II-18]
Marked response: 293

Exam item: Please list IC50 recorded for the compound CO[C@@H]1C[C@@H]([C@H](C)Oc2cc(N3CCNC4(CC4)C3)nc(-c3noc4c3CCC[C@@]43CCCc4sc(N)c(C#N)c43)n2)N(C)C1 [II-187]
Marked response: 1150

Exam item: Give the reported value of IC50 for this record: CO[C@@H]1C[C@@H]([C@H](C)Oc2cc(N3CCN(C)C4(COC4)C3)nc(-c3noc4c3CCC[C@@]43CCCc4sc(N)c(C#N)c43)n2)N(C)C1 [II-153]
Marked response: 199

Exam item: Using known records, supply IC50 for C[C@H](Oc1cc(N2CCCC2=O)nc(-c2noc3c2CCC[C@@]32CCCc3sc(N)c(C#N)c32)n1)[C@@H]1CCCN1C [II-73]
Marked response: 33

* * *

experiment: Plasma protein binding assay (PPB), equilibrium dialysis, 10% FCS in PBS; type: in vitro ADME; conditions: bovine, read-out: PPB 10% FCS (% fu)
In plain terms, low fraction unbound, meaning strictly below 0.1, gives TRUE, and everything else gives FALSE.

Exam item: Please state whether fraction unbound is below 0.1 for C[C@H](Oc1cc(-c2cnsc2)nc(-c2noc3c2CCC[C@@]32CCCc3sc(N)c(C#N)c32)n1)[C@@H]1CCCN1C
Marked response: FALSE

Exam item: Is fraction unbound of CO[C@H]1CCN(C)[C@@H]1[C@H](C)Oc1cc(-n2ccc(C(=O)N[C@@H](C)c3ccccn3)n2)nc(-c2noc3c2CCC[C@@]32CCCc3sc(N)c(C#N)c32)n1 strictly below 0.1?
Marked response: TRUE

Exam item: In plain terms, does C[C@H](Oc1cc(-n2ccc(-c3cn(CC4(C)COC4)nn3)n2)nc(-c2noc3c2CCC[C@@]32CCCc3sc(N)c(C#N)c32)n1)[C@@H]1CCCN1C come in under 0.1 for fraction unbound?
Marked response: TRUE

Exam item: In plain terms, does C[C@H](Oc1cc(-c2ccncc2)nc(-c2noc3c2CCC[C@@]32CCCc3sc(N)c(C#N)c32)n1)[C@@H]1CCCN1C come in under 0.1 for fraction unbound?
Marked response: FALSE

Exam item: Given the entry CO[C@H]1CCN(C)[C@@H]1[C@H](C)Oc1cc(-n2ccc(CC(=O)NC(C)C)n2)nc(-c2onc3c2CCC[C@@]32CCCc3sc(N)c(C#N)c32)n1 , would its reported fraction unbound be below 0.1?
Marked response: FALSE

Exam item: Quick check: does C[C@H]1CN(C)CCCN1c1cc(N2CCN(C)CC2)nc(-c2noc3c2CCC[C@@]32CCCc3sc(N)c(C#N)c32)n1 have fraction unbound under 0.1?
Marked response: FALSE

* * *

test system: KRAS G12C-dependent Ba/F3 cells; test: Ba/F3 proliferation assay, KRAS G12C; assay type: cell-based; details: Mus musculus, BaF3, 72 h, AlamarBlue
Provide the reported IC50 of each item.
Return type: number; implicit unit µM.

Exam item: Assign IC50 to the following record: C[C@H](Oc1cc(N2CCNCC2)nc(-c2noc3c2CCC[C@@]32CCCc3sc(N)c(C#N)c32)n1)[C@@H]1CCCN1C
Marked response: 0.606

Exam item: Please report the measured IC50 for C[C@H](Oc1cc(-c2ccn(-c3ccccc3)n2)nc(-c2noc3c2CCC[C@@]32CCCc3sc(N)c(C#N)c32)n1)[C@@H]1CCCN1C
Marked response: 0.057

Exam item: Output IC50 of CC(C)N1CCCN(c2cc(-c3ccn(C)n3)nc(-c3noc4c3CCC[C@@]43CCCc4sc(N)c(C#N)c43)n2)[C@@H](C)C1
Marked response: 0.026

* * *

Exercise: state measured pIC50 for each of the compounds provided.
Target: KRAS (G13D)::SOS1 (Homo sapiens (Human), UniProt P01116, C118S/G13D)
Sequence (P01116 other isoform, or with tags, fused parts or gaps G13D/C118S): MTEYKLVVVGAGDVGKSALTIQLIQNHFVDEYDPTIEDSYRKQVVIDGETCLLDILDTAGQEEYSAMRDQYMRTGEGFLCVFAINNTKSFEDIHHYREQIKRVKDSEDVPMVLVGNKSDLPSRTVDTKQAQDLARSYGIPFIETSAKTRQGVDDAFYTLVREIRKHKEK
Experiment: KRAS::SOS1 AlphaScreen binding assay, KRAS G13D
Protocol: This assay can be used to examine the potency with which compounds according to the invention binding to (mutated) KRAS inhibit the protein-protein interaction between SOS1 and (mutated) KRAS e.g., KRAS WT, KRAS G12C, KRAS G12D, KRAS G12V, KRAS G13D. […] Plates are kept at room temperature in a darkened incubator. After an additional 60 minutes incubation time the signal is measured in a PerkinElmer Envision HTS Multilabel Reader using the AlphaScreen specs from PerkinElmer. […]
In plain terms, pIC50 is the concentration in mol/L turned into minus its base-10 logarithm.

Exam item: Given C[C@H](Oc1cc(-n2ccc(C(N)=O)n2)nc(-c2noc3c2CCC[C@@]32CCCc3sc(N)c(C#N)c32)n1)[C@@H]1CCCN1C , respond with its pIC50.
Marked response: 7.92

Exam item: For the compound C[C@H](Oc1cc(N2CCN(C)C3(CC3)C2)nc(-c2onc3c2CCC[C@@]32CCCc3sc(N)c(C#N)c32)n1)[C@@H]1C[C@@H](F)CN1C , report pIC50.
Marked response: 6.84

Exam item: Identify pIC50 associated with the compound C[C@H](Oc1cc(N2CCCC3(COC3)C2)nc(-c2noc3c2CCC[C@@]32CCCc3sc(N)c(C#N)c32)n1)[C@@H]1CCCN1C
Marked response: 8.05

Exam item: Input C[C@H](Oc1cc([C@@H]2CCOC2)nc(-c2noc3c2CCC[C@@]32CCCc3sc(N)c(C#N)c32)n1)[C@@H]1CCCN1C , output reported pIC50.
Marked response: 8.05

Exam item: State its pIC50 for this compound: C[C@H](Oc1cc(C2CCOCC2)nc(-c2noc3c2CCC[C@@]32CCCc3sc(N)c(C#N)c32)n1)[C@@H]1CCCN1C
Marked response: 7.39

Exam item: Check the records and state pIC50 for C[C@H](Oc1cc(-n2ccc(C(=O)NC3COC3)n2)nc(-c2noc3c2CCC[C@@]32CCCc3sc(N)c(C#N)c32)n1)[C@@H]1CCCN1C
Marked response: 7.96

Exam item: Item C[C@H](Oc1cc(N2CCNC3(COC3)C2)nc(-c2noc3c2CCC[C@@]32CCCc3sc(N)c(C#N)c32)n1)[C@@H]1CCCN1C : provide pIC50
Marked response: 8.10

Exam item: Report pIC50, nothing else, for this compound: C[C@H](Oc1cc(-n2ccc(C(=O)N[C@H]3CCOC3)n2)nc(-c2noc3c2CCC[C@@]32CCCc3sc(N)c(C#N)c32)n1)[C@@H]1CCCN1C
Marked response: 8.05

Exam item: Give the reported value of pIC50 for this record: C[C@H](Oc1cc(N2CCN(C)C3(COC3)C2)nc(-c2noc3c2CCC[C@@]32CCCc3sc(N)c(C#N)c32)n1)[C@@H]1CCCN1C
Marked response: 8.10

Exam item: Specify pIC50 for C[C@H](Oc1cc(N2CCOC3(COC3)C2)nc(-c2noc3c2CCC[C@@]32CCCc3sc(N)c(C#N)c32)n1)[C@@H]1CCCN1C and stop.
Marked response: 8.10

Exam item: Name the recorded pIC50 of the item C[C@H](Oc1cc(N2CC[C@H](N(C)C)C2)nc(-c2noc3c2CCC[C@@]32CCCc3sc(N)c(C#N)c32)n1)[C@@H]1C[C@@H](F)CN1C in your answer.
Marked response: 7.15

Exam item: Report pIC50 for C[C@H](Oc1cc(N2CCN(C)CC2)nc(-c2noc3c2CCC[C@@]32CCCc3sc(N)c(C#N)c32)n1)[C@@H]1CCCN1C
Marked response: 7.33

Exam item: Specify pIC50 for CO[C@H]1CCN(C)[C@@H]1[C@H](C)Oc1cc(-n2ccc(C(N)=O)n2)nc(-c2noc3c2CCC[C@@]32CCCc3sc(N)c(C#N)c32)n1 and stop.
Marked response: 7.57

Exam item: // fetch pIC50 given entry CC(C)NC(=O)Cc1ccn(-c2cc(O[C@@H](C)[C@@H]3CCCN3C)nc(-c3noc4c3CCC[C@@]43CCCc4sc(N)c(C#N)c43)n2)n1
Marked response: 8.10

Exam item: Check the records and state pIC50 for C[C@H](Oc1cc(N2CCNC3(COC3)C2)nc(-c2onc3c2CCC[C@@]32CCCc3sc(N)c(C#N)c32)n1)[C@@H]1CCCN1C
Marked response: 7.70

Exam item: Output pIC50 of C[C@H](Oc1cc(N2CC3CCC(C2)N3)nc(-c2noc3c2CCC[C@@]32CCCc3sc(N)c(C#N)c32)n1)[C@@H]1CCCN1C
Marked response: 7.42

Exam item: Given C[C@H](Oc1cc(-n2ccncc2=O)nc(-c2noc3c2CCC[C@@]32CCCc3sc(N)c(C#N)c32)n1)[C@@H]1CCCN1C , respond with its pIC50.
Marked response: 7.77

Exam item: # return recorded pIC50 for input COCCNC(=O)c1ccn(-c2cc(O[C@@H](C)[C@@H]3CCCN3C)nc(-c3noc4c3CCC[C@@]43CCCc4sc(N)c(C#N)c43)n2)n1
Marked response: 8.15

Exam item: # return recorded pIC50 for input C[C@H](Oc1cc(-n2ccc(C(=O)N[C@@H]3CCOC3)n2)nc(-c2noc3c2CCC[C@@]32CCCc3sc(N)c(C#N)c32)n1)[C@@H]1CCCN1C
Marked response: 8.15

Exam item: Give reported pIC50 value for C[C@H](Oc1cc(N2CCNC3(CC3)C2)nc(-c2noc3c2CCC[C@@]32CCCc3sc(N)c(C#N)c32)n1)[C@@H]1CCCN1C
Marked response: 7.48

# credit: patent US20240174690A1
